Tested on: Soya
Assay: Pre-emergent herbicidal activity on crop plant
Assay type: in vivo
Conditions: Table B3; 30 g/ha; crop plant; rating 10=total damage, 0=no action
Below, each of the compounds is paired with its reported Pre-emergent Herbicidal Activity: Soya value.
experimental endpoint: Pre-emergent Herbicidal Activity: Soya

> print(dat)
                                   compound  result.value
1  COCCCc1nc(C(F)(F)F)ccc1C(=O)C1C(=O)C2CCC(C2)C1=O (centres unmarked) [Compound H-14]             3
2  COCCc1nc(C(F)(F)F)ccc1C(=O)C1C(=O)C2CCC(C2)C1=O (centres unmarked) [A]             5
3  COCc1nc(C(F)(F)F)ccc1C(=O)C1C(=O)C2CCC(C2)C1=O (centres unmarked) [B]             8
4  COC/C=C\c1nc(C(F)(F)F)ccc1C(=O)C1C(=O)C2CCC(C2)C1=O (centres unmarked) [C]             0
5  COCCCCc1nc(C(F)(F)F)ccc1C(=O)C1C(=O)C2CCC(C2)C1=O (centres unmarked) [Compound F]             0
